tested on: parental HEK cells; assay: HEK parental Agonist Counterscreen Assay (non-transfected cells); assay type: cell-based; settings: HEK Agonist Activity section
measuredProperty: Lipophilic Efficiency (logD)

// known answers, use as guide
O=C(CCC1CCCC1)NNC(=O)CSc1ccc(Cl)cc1 ... 1.55
Cc1ccc(NC(=O)CSC2=C(C#N)C(c3ccc(F)cc3)CC(=O)N2)c(C)c1 (centres unmarked) ... 0.89
Cc1cccc(NC(=O)Cn2ncc3c2-c2ccccc2OC3)n1 ... 2.87
O=C(CSc1ccc(Cl)cc1)Nc1nnc(-c2ccco2)o1 ... 2.29
COc1ccc(C2(C)NC(=O)N(CC(=O)NCc3ccc(F)cc3)C2=O)cc1 (centres unmarked) ... 3.10

P. Cc1ccc(SCC(=O)NNC(=O)c2cccs2)cc1
Q. O=C(O)COc1cc(Br)c(Br)c(Br)c1O
R. Cc1ccccc1SCC(=O)NNC(=O)c1ccc(Br)s1
Task item: Arrange items by their Lipophilic Efficiency (logD) values in increasing order. I would appreciate it if you listed the labels in the requested order.
Reply: R, P, Q
(R: 1.25, P: 2.20, Q: 5.29)
